Task for the reader: assign each of the following compounds its reported inhibition at 100 µM.
ASSAY_SUMMARY: Cytotoxicity against human HCT116 cells assessed as growth inhibition at 100 uM by MTT assay relative to control
Format: cell-based, HCT-116
EXPERIMENTAL_CONDITIONS: read-out: GI

Name the recorded inhibition at 100 µM of the compound listed here: Cc1cc(O)c(C(=O)/C=C/c2ccccc2)c(=O)o1
50%

Tell us which inhibition at 100 µM value is on record for CCOc1cccc(/C=C/C(=O)c2c(O)cc(C)oc2=O)c1
67 to 70%

----------
Consider the following molecules; for each one, report its inhibition at 100 µM.
ASSAY_SUMMARY: Cytotoxicity against HEK293 cells assessed as growth inhibition at 100 uM by MTT assay relative to control
Format: cell-based
EXPERIMENTAL_CONDITIONS: human, read-out: GI

Give the measured inhibition at 100 µM for Cc1cc(O)c(C(=O)/C=C/c2ccccc2)c(=O)o1
38 to 44%

Tell us which inhibition at 100 µM value is on record for CCOc1cccc(/C=C/C(=O)c2c(O)cc(C)oc2=O)c1
67 to 70%

----------
ASSAY_SUMMARY: Cytotoxicity against human MCF7 cells assessed as growth inhibition at 100 uM by MTT assay relative to control
Assay type: cell-based
EXPERIMENTAL_CONDITIONS: read-out: GI
PARAMETER: inhibition at 100 µM

// Input: CCOc1cccc(/C=C/C(=O)c2c(O)cc(C)oc2=O)c1 . Output its inhibition at 100 µM only.
67 to 70%

Supply reported inhibition at 100 µM belonging to this compound: Cc1cc(O)c(C(=O)/C=C/c2ccccc2)c(=O)o1
38 to 44%
